system: Enterobacter cloacae VGH 84-37; assay: in vitro antibacterial MIC, agar plate dilution; format: cell-based; conditions: Enterobacter cloacae, VGH8437, 18 h, 35° C., read-out: MIC
Reported MIC values for the following compounds.

compound	targetOfAssay	MIC, µg/mL
CCn1cc(C(=O)O)c(=O)c2cc(F)c(N3CCNC(COc4ccccc4)C3)cc21 (stereo not shown) [Example 9]	Enterobacter cloacae VGH 84-37	0.25
CCn1cc(C(=O)O)c(=O)c2cc(F)c(N3CCNC(c4sccc4C)C3)cc21 (stereo not shown) [Example 16]	Enterobacter cloacae VGH 84-37	8
CCCCCCOCC1CN(c2cc3c(cc2F)c(=O)c(C(=O)O)cn3CC)CCN1 (stereo not shown) [Example 77]	Enterobacter cloacae VGH 84-37	4
CCn1cc(C(=O)O)c(=O)c2cc(F)c(N3CCNC(CNC)C3)cc21.Cl.Cl (stereo not shown) [Example 53]	Enterobacter cloacae VGH 84-37	32
